Record form. Attribute: sfGFP reporter fluorescence. Fill in for each entry.
B1: library; numbered along this chain (parent)
chain: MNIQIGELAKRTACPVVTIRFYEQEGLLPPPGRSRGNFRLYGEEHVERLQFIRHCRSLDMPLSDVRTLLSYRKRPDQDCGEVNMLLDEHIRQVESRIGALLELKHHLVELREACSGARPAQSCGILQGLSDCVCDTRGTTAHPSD

variants of: B1; experiment: sfGFP reporter fluorescence (15 h) (µM FITC); higher = higher leak; conditions: library round: Round 0; ligand: none
Please reply with the value in numeric form only.

Item MNIQIGELAKRTACPVVTIRFYEQEGLLPPPGRSRGNFRLYGEEHVERLQFIRHCRSLDMPLSDVRTLLSYRKRPDQDCGEVNMLLDEHIRQVESRIGALLELKHHLVELREACSGARPAQSCGILQSLSDCVCDTRGTTAHPSD [G128S] has what recorded sfGFP reporter fluorescence? 0.0649

Item MNIQIGELAKRTACPVVTIRFYEQEGLLPPPGRSRGNFRLYGEEHVERLQFIRHCRSLDMPLSAVRTLLSYRKRPDQDCGEVNMLLDEHIRQVESRIGALLELKHHLVELREACSGARPAQSCGILQGLSDCVCDTRGTTAHPSD [D64A] has what recorded sfGFP reporter fluorescence? 0.0874

Item MNIQIGELAKRTACPVVTIRFYEQEGLLPPPGRSRGNFRLYGEEHDERLQFIRHCRSLDMPLSDVRTLLSYRKRPDQDCGEVNMLLDEHIRQVESRIGALLELKHHLVELREACSGARPAQSCGILQGLSDCVCDTRGTTAHPSD [V46D] has what recorded sfGFP reporter fluorescence? 0.0581

Item MNIQIGELAKRTACPVVTIRFYEQEGLLPPPGRSRGNFRLYGEEHVERLQFIRHCRSLDMPLSDVRTLLSYRKRPDQDCGEVNMLLDEHIRQVESRIGALLELKHHLVELREACSGARPAQSCGILQGLSDCVCNTRGTTAHPSD [D135N] has what recorded sfGFP reporter fluorescence? 0.0588

Item MNIQIGELAKRTACPVVTIRFYEQEGLLPPPGRSRGNFRLYGEEHVERLQFIRHCRSLDMPLSDVRTLLSYRKRPDQDCGEVNMLLDEHIRQVESRIGALLELVHHLVELREACSGARPAQSCGILQMLSDCVCDTRGTTAHPSD [K104V G128M] has what recorded sfGFP reporter fluorescence? 0.179

Item MNIQIGELAKRTACPVVTIRFYEQEGLLPPPGRSRGNFRLYGEEHVERLQFIRHCRSLDMPLSDVRTLLSYRKRPDQDCGEVNMLLDEHIRQVESRIGALLELKHHLVELREACSGARPAQSCGICQGLSDCVCDTRGTTAHPSD [L126C] has what recorded sfGFP reporter fluorescence? 0.059

Item MNIQIGELAKRTACPVVTIRFYEQEGLLPPPGRSRGNFRLYGEEHVERLQFIRHCRSLDMPLSDVRTLLSYRKRPDQDCGEVNMLLDEHIRQVESRIGALLELKHHLVELRKACSGARPAQSCGILQGLSDCVCDTRGTTAHPSD [E112K] has what recorded sfGFP reporter fluorescence? 0.0706

Item MNIQIGELAKRTACPVVTIRFYEQEGLLPPPGRSRGNFRLYGEEHVERLQFIRHCRSADMPLSDVRTLLSYRKRPDQDCGEVNMLLDEHIRQVESRIGALLELKHHLVELREACSGARPAQSCGILQGLSDCVCDTRGTTAHPSD [L58A] has what recorded sfGFP reporter fluorescence? 0.0601

Item MNIQIGELAKRTACPHVTIRFYEQEGLLPPPGRSRGNFRLYGEEHVERLQFIRHCRSLDMPLSDVRTLLSYRKRPDQDCGEVNMLLDEHIRQVESRIGALLELKHHLVELREACSGARPAQSCGILQGLSDCVCDTRGTTAHPSD [V16H] has what recorded sfGFP reporter fluorescence? 0.0654

Item MNIQIGELAKRTACPVVTIRFYEQEGLLPPPGRSRGNFRLYGEEHVERLQFIRHCRSLDCPLSDVRTLLSYRKRPDQDCGEVNMLLDEHIRQVESRIGALLELKHHLVELREACSGARPAQSCGILQGLSDCVCDTRGTTAHPSD [M60C] has what recorded sfGFP reporter fluorescence? 0.0603

Item MNIQIGELAKRTACPVVTIRFYEQEGLLPPPGRSRGNFRLYGEEHVERLQFIRHCRSLDMPLSDVRTLLSYRKRPDQDCGEVNMLLDEHIRQVESRAGALLELKHHLVELREACSGARPAQSCGILQGLSDCVCDTRGTTAHPSD [I97A] has what recorded sfGFP reporter fluorescence? 0.0663

Item MNIQIGELAKRTACPVVTIRFYEQEGLLPPPGRSRGNFRLYGEEHVERLQFIRHCRSLDMPLSDVRTLLSYRKRPDQDCGEVNMLLDEHIRQVESRIGALLELKHHLVELREACSGARPAQSCGILQGLSDCVCCTRGTTAHPSD [D135C] has what recorded sfGFP reporter fluorescence? 0.0603

Item MNIQIGELAKRTACPVVTIRFYEQEGLLPPPGRSRGNFPLYGEEHVERLQFIRHCRSLDMPLSDVRTLLSYRKRPDQDCGEVNMLLDEHIRQVESRIGALLELKHHLVELREACSGARPAQSCGILQGLSDCVCDTRGTTAHPSD [R39P] has what recorded sfGFP reporter fluorescence? 0.0581

Item MNIQIGELAKRTACPVVTIRFYEQEGLLPPPGRSRGNFRLYGEEHVERLQFIRHCRSLDMPLSDVRTLLSYRKRPDQDCGEVNMLLDEHIRQVESRIGALLELKHHLVELREACSGARPAQSCGILQGLSDCVIDTRGTTAHPSD [C134I] has what recorded sfGFP reporter fluorescence? 0.0678

Item MNIQIGELAKRTACPVVTIRFYEQEGLLPPPGRSRGNFRLYGEEHVERLQFIRHCRSLDMPLSDVRTLLSYRKRPDQDCGEVNMLLDEHIRQVESRIGALLELKHHLVEVREACSGARPAQSCGILQGLSDCVCDTRGTTAHPSD [L110V] has what recorded sfGFP reporter fluorescence? 0.0601

Item MNIQIGELAKRTACPVVTIRFYEQEGLLPPPGRSRGNFRLYGEEHVERLQFIRHCRSLDMPLSDVRTLLSYRKRPDQDCGEVNMLLDEHIRQVESRIGALLELKHHLVELREACSGARPAQSCGVLQGLSDCVCDTRGTTAHPSD [I125V] has what recorded sfGFP reporter fluorescence? 0.0583

Item MNIQIGELAKRTACPVVTIRFYEQEGLLPPPGRSRGNFRLYGEEHVERLQFIRHCRSLDMPLSDVRTLLSYRKRPDQDCGEVNMLLDEHIRQVESRIGALLELKHHLVELWEACSGARPAQSCGILQGLSDCVCDTRGTTAHPSD [R111W] has what recorded sfGFP reporter fluorescence? 0.0594

Item MNIQIGELAKRTACPVVTIRFYEQEGLLPPPGRSRGNFRLYGEEHVERLQFIRHCRSLDLNLSKVRTLLSYRKRPDQDCGEVNMLLDEHIRQVESRIGALLELVHHLVELREACSGARPAQSCGILQGLSDCVCDTRGTTAHPSD [M60L P61N D64K K104V] has what recorded sfGFP reporter fluorescence? 0.366

Item MNIQIGELAKRTACPVVTIRFYEQEGLLPPPGRSRGNFRLYGEEHVERLQFIRHCRSLDMPLSDVRTLLSYRKRPDQDCGEVHMLLDEHIRQVESRIGALLELKHHLVELREACSGARPAQSCGILQGLSDCVCDTRGTTAHPSD [N83H] has what recorded sfGFP reporter fluorescence? 2.73

Item MNIQIGELAKRTACPVVTIRFYEQEGLLPPPGRSRGNFRLYGEEHVERLQFIRHCRSLDLPLSDVRTLLSYRKRPDQDCGEVNMLLDEHIRQVESRIGALLELVHHCVELREACSGARPAQSCGILQMLSDCVCDTRGTTAHPSD [M60L K104V L107C G128M] has what recorded sfGFP reporter fluorescence? 2.3

Item MNIQIGELAKRTACPVVTIRFYEQEGLLPPPGRSRGNFRLYGEEHVERLQFIRHCRSLDMPLSDVRTLLSYRKRPDQDCGEVNMLLDEHIRQVESRIGALLELKHHLVELREACSGARPAQSCGIQQGLSDCVCDTRGTTAHPSD [L126Q] has what recorded sfGFP reporter fluorescence? 0.059

Item MNIQIGELAKRTACPVVTIRFYEQEGLLPPPGRSRGNFRLYGEEHVERLQFIRHCRSLDMPRSDVRTLLSYRKRPDQDCGEVNMLLDEHIRQVESRIGALLELKHHLVELREACSGARPAQSCGILQGLSDCVCDTRGTTAHPSD [L62R] has what recorded sfGFP reporter fluorescence? 0.0638

Item MNIQIGELAKRTACPVVTIRFYEQEGLLPTPGRSRGNFRLYGEEHVERLQFIRHCRSLDMPLSDVRTLLSYRKRPDQDCGEVNMLLDEHIRQVESRIGALLELKHHLVELREACSGARPAQSCGILQGLSDCVCDTRGTTAHPSD [P30T] has what recorded sfGFP reporter fluorescence? 0.064

Item MNIQIGELAKRTACPVVTIRFYEQEGLLPPPGRSRGNFRLYGEEHVERLQFIRHFRSLDMPLSDVRTLLSYRKRPDQDCGEVNMLLDEHIRQVESRIGALLELKHHLVELREACSGARPAQSCGILQGLSDCVCDTRGTTAHPSD [C55F] has what recorded sfGFP reporter fluorescence? 0.0634

Item MNIQIGELAKRTACPVVTIKFYEQEGLLPPPGRSRGNFRLYGEEHVERLQFIRHCRSLDMPLSDVRTLLSYRKRPDQDCGEVNMLLDEHIRQVESRIGALLELKHHLVELREACSGARPAQSCGILQGLSDCVCDTRGTTAHPSD [R20K] has what recorded sfGFP reporter fluorescence? 0.0623

Item MNIQIGELAKRTACPVVTIRFYEQEGLLPPPGKSRGNFRLYGEEHVERLQFIRHCRSLDMPLSDVRTLLSYRKRPDQDCGEVNMLLDEHIRQVESRIGALLELKHHLVELREACSGARPAQSCGILQGLSDCVCDTRGTTAHPSD [R33K] has what recorded sfGFP reporter fluorescence? 0.064

Item MNIQIGELAKRTACPVVTIRFYEQEGLLPPPGRSRGNFRLYGEEHVERLQFIRHCRSLDMPLSDVRTLLSYRKRPDQDCGEVNMLLDEHIRQVESRIGALLELKHHLVELREALSGARPAQSCGILQGLSDCVCDTRGTTAHPSD [C114L] has what recorded sfGFP reporter fluorescence? 0.0561

Item MNIQIGELAKRTACPVVTIRFYEQEGLLPPPGRSRGNFRLYGEEHVERLQFIRHCRSLDMPLSDVRTLLSYRKRPDQDCGEVNMLLDEHRRQVESRIGALLELKHHLVELREACSGARPAQSCGILQGLSDCVCDTRGTTAHPSD [I90R] has what recorded sfGFP reporter fluorescence? 0.0658

Item MNIQIGELAKRTACPVVTIRFYEQEGLLPPPGRSRGNFRLYGEEHVERLQFIRHCRSLDLPLSKVRTLLSYRKRPDQDCGEVNMLLDEHIRQVESRIGALLELVHHLVELREACSGARPAQSCGILQGLSDCVCDTRGTTAHPSD [M60L D64K K104V] has what recorded sfGFP reporter fluorescence? 2.02

Item MNIQIGELAKRTACPVVTIRFYEQEGLLPPPGRSRGNFRLYGEEHVERLQFIRHCRSLDLPLSDVRTLLSYRKRPDQDCGEVNMLLDEHIRQVESRIGALLELKHHCVELREACSGARPAQSCGILQMLSDCVCDTRGTTAHPSD [M60L L107C G128M] has what recorded sfGFP reporter fluorescence? 4.48

Item MNIQIGELAKRTACPVVTIRFYEQEGLLPPPGRSRGNFRLYGEEHVERLQFIRHCRSLDMPLSDVRTLLSYRKRPDQDCGEVNMLLDEHIRQVESRIGALLELKHHLVELREACSGARPAQSCGILQGLSDCVCDTRGTTAHCSD [P143C] has what recorded sfGFP reporter fluorescence? 0.0574

Item MNIQIGELAKRTACPVVTIRFYEQEGLLPPPGRSRGNFRLYGEEHVERLQFIRHCRSLDMPLSDVRTLLSYRKRPDQDCGEPNMLLDEHIRQVESRIGALLELKHHLVELREACSGARPAQSCGILQGLSDCVCDTRGTTAHPSD [V82P] has what recorded sfGFP reporter fluorescence? 0.057

Item MNIQIGELAKRTACPVVTIRFYEQEGLTPPPGRSRGNFRLYGEEHVERLQFIRHCRSLDMPLSDVRTLLSYRKRPDQDCGEVNMLLDEHIRQVESRIGALLELKHHLVELREACSGARPAQSCGILQGLSDCVCDTRGTTAHPSD [L28T] has what recorded sfGFP reporter fluorescence? 0.0647

Item MNIQIGELAKRTACPVVTIRFYEQEGLLPPPGRSRGNFRLYGEEHVERLQFIRHCRSLDMPLSDVRTLLSARKRPDQDCGEVNMLLDEHIRQVESRIGALLELKHHLVELREACSGARPAQSCGILQGLSDCVCDTRGTTAHPSD [Y71A] has what recorded sfGFP reporter fluorescence? 0.0597
